This section presents compounds with their documented DC50 values.
molecular target: CK1α (Homo sapiens, UniProt P48729+Q96SW2); construct: CSNK1A1-HiBit KI HEK293(LgBit) Cells; host or cells: HEK293(LgBit) knock-in cells; experiment: HiBiT degradation assay, CK1α, Procedure A; type: cell-based; conditions: six hours
Sequence (P48729 whole entry): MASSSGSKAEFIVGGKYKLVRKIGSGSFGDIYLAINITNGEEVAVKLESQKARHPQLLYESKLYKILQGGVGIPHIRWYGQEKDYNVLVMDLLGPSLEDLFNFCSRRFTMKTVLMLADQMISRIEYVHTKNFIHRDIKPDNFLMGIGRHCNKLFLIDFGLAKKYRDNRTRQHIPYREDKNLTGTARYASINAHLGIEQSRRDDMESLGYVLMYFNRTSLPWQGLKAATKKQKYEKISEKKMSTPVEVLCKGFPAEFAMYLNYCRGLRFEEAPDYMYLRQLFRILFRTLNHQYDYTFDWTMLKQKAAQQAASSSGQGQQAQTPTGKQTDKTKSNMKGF
Sequence (Q96SW2 whole entry): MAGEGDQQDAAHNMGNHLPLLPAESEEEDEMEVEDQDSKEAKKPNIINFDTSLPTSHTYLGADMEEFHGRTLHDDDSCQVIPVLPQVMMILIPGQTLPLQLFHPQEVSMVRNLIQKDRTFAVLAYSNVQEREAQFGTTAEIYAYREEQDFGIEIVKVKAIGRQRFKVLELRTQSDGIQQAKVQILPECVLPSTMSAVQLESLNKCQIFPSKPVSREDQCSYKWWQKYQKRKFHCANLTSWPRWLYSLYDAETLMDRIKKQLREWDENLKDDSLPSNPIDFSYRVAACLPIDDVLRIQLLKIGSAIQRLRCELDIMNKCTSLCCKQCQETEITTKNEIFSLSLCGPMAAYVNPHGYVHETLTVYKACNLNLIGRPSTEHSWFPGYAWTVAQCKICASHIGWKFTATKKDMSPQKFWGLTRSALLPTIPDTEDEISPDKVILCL
Sequence (Q16531 whole entry partner): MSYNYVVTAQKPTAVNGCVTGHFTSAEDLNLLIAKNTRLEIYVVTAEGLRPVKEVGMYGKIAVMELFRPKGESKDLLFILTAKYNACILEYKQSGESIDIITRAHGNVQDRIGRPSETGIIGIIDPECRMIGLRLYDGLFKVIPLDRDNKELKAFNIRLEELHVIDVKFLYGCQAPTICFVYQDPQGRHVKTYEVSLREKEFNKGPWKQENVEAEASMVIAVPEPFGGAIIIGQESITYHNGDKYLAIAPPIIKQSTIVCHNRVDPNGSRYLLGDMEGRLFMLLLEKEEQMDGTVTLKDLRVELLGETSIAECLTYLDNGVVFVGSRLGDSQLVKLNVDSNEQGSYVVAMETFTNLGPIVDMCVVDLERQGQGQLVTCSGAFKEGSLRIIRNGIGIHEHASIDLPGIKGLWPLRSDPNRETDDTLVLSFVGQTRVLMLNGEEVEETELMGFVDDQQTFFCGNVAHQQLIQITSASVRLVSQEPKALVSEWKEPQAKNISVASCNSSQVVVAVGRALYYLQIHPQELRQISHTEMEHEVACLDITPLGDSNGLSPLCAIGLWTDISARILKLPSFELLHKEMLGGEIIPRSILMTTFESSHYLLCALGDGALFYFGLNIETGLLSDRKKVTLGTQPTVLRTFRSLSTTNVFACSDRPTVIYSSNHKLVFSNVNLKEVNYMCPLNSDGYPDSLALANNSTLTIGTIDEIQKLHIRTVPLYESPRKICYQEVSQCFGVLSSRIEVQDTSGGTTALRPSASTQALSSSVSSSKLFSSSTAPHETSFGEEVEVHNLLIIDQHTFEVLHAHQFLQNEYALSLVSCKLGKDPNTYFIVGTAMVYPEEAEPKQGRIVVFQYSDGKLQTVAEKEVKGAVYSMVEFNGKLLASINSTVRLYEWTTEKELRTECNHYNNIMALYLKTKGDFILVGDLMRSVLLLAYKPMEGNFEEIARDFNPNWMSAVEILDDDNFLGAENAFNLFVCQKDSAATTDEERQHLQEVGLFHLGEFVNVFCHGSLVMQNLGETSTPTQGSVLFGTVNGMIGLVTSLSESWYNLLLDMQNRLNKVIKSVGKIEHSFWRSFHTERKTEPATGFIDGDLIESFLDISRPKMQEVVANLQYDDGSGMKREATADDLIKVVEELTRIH

Worked examples, 5 compounds total:
What value of measured DC50 is listed for Cn1cnc(-c2ccc3c(c2)CN(C2CCC(=O)NC2=O)C3=O)c1-c1ccc2ccn(C)c2c1 (centres unmarked) [Example 529] ?
< 25 nM

For Cn1cnc(-c2ccc3c(c2)CN(C2CCC(=O)NC2=O)C3=O)c1-c1cccs1 (centres unmarked) [Example 506] then?
< 25 nM

Lookup COCCCOc1ccc(-c2c(-c3ccc4c(c3)CN(C3CCC(=O)NC3=O)C4=O)cnn2C)cc1 (centres unmarked) [Example 411]
< 25 nM

# repeat for Cn1nc(-c2ccc3c(c2)CN(C2CCC(=O)NC2=O)C3=O)cc1C1CCC(F)(F)CC1 (centres unmarked) [Example 546]
< 25 nM

Now the compound Cc1cc(-c2nc(-c3ccc4c(c3)CN(C3CCC(=O)NC3=O)C4=O)cn2C)ccc1F (centres unmarked) [Example 563]
< 25 nM

Next:
What does the record list as DC50 for Cn1cc(-c2ccc3c(c2)CN(C2CCC(=O)NC2=O)C3=O)nc1-c1ccc(CO)cc1 (centres unmarked) [Example 657] ?
< 25 nM

Further, for Cn1ncc(-c2ccc3c(c2)CN(C2CCC(=O)NC2=O)C3=O)c1-c1ccc(F)cc1C#N (centres unmarked) [Example 438] ?
≥ 25 nM

Proceed to Cc1ccc(-c2c(-c3ccc4c(c3)CN(C3CCC(=O)NC3=O)C4=O)ncn2C)cn1 (centres unmarked) [Example 397]
≥ 25 nM

====

target: GSPT1 (Homo sapiens, UniProt P15170+Q96SW2); assay: HiBiT degradation assay, GSPT1, Procedure A; type: cell-based; design: HiBit-GSPT1 KI HEK293(LgBit) Cells; host or cells: HEK293(LgBit) knock-in cells; conditions: six hours
Sequence (P15170 whole entry): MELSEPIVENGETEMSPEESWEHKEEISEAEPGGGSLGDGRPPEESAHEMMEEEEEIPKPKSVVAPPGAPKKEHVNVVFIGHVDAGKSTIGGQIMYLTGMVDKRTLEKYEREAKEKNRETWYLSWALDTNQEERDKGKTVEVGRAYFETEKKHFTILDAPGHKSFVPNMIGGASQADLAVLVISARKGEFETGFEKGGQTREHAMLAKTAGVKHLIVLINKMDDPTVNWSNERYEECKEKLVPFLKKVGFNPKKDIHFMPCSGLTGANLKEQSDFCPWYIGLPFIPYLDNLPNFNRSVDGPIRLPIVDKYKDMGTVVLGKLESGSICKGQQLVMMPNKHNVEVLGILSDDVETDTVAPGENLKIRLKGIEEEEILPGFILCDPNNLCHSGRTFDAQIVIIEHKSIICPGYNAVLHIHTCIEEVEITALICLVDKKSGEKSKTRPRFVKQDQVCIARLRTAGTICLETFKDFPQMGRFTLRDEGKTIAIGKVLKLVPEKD
Sequence (Q96SW2 whole entry): as the sequence (Q96SW2 whole entry) above
Sequence (Q16531 whole entry partner): as the sequence (Q16531 whole entry partner) above
In this section we review reported DC50 values for a set of molecules.

Some molecules with recorded DC50:
Which DC50 value is on record for Cn1cnc(-c2ccc3c(c2)CN(C2CCC(=O)NC2=O)C3=O)c1-c1ccc2ncn(C)c2c1 (stereo not shown) ?
≥ 25 nM

And the next one, Cn1nc(-c2ccc3c(c2)CN(C2CCC(=O)NC2=O)C3=O)nc1N1CCC(C)(C)CC1 (stereo not shown) ?
≥ 25 nM

Consider next the molecule Cn1cnc(-c2ccc3c(c2)CN(C2CCC(=O)NC2=O)C3=O)c1-c1ccc(-n2cccn2)cc1 (stereo not shown) in the same way.
< 25 nM

Further cases:
// returns reported DC50 for input Cn1ncc(-c2ccc3c(c2)CN(C2CCC(=O)NC2=O)C3=O)c1-c1ccc2cnn(C)c2c1 (stereo not shown)
≥ 25 nM

====

target: GSPT1 (Homo sapiens, UniProt P15170+Q96SW2); assay: HiBiT degradation assay, GSPT1, Procedure A; format: cell-based; design: HiBit-GSPT1 KI HEK293(LgBit) Cells; host or cells: HEK293(LgBit) knock-in cells; settings: six hours incubation
TEST_READOUT: DC50

Observe how each entry below is paired with its result.
If you can, please state the reported DC50 value of Cn1cnc(-c2ccc3c(c2)CN(C2CCC(=O)NC2=O)C3=O)c1-c1cc(Cl)ccc1Cl (stereo not shown) .
< 25 nM

Same for COc1cc(-c2c(-c3ccc4c(c3)CN(C3CCC(=O)NC3=O)C4=O)ncn2C)ccc1Cl (stereo not shown)
≥ 25 nM

Now consider O=C1CCC(N2Cc3cc(-c4cnn5c4-c4ccccc4C5)ccc3C2=O)C(=O)N1 (stereo not shown) and answer again.
≥ 25 nM

And the next one, Cn1cnc(-c2ccc3c(c2)CN(C2CCC(=O)NC2=O)C3=O)c1-c1cccc(F)c1F (stereo not shown) ?
< 25 nM

// query: COc1ccc(-c2c(-c3ccc4c(c3)CN(C3CCC(=O)NC3=O)C4=O)cnn2C)cc1F (stereo not shown)
≥ 25 nM

Then Cn1ncc(-c2ccc3c(c2)CN(C2CCC(=O)NC2=O)C3=O)c1-c1cc(F)ccc1F (stereo not shown) ?
≥ 25 nM

And the next one, Cn1ncc(-c2ccc3c(c2)CN(C2CCC(=O)NC2=O)C3=O)c1-c1ccc(C2(C#N)CC2)cc1 (stereo not shown) ?
≥ 25 nM

Ok, now Cn1cnc(-c2ccc3c(c2)CN(C2CCC(=O)NC2=O)C3=O)c1-c1ccc(C(=O)NCc2ccccc2)c(Cl)c1 (stereo not shown)
< 25 nM

Can you handle O=C1CCC(N2Cc3cc(-c4cscc4-c4ccccc4)ccc3C2=O)C(=O)N1 (stereo not shown) next?
≥ 25 nM

Cc1c(F)cccc1-c1c(-c2ccc3c(c2)CN(C2CCC(=O)NC2=O)C3=O)cnn1C (stereo not shown) ?
≥ 25 nM

Further cases:
# query: DC50 of entry O=C1CCC(N2Cc3cc(-c4c[nH]c(-c5ccccc5)n4)ccc3C2=O)C(=O)N1 (stereo not shown)
≥ 25 nM

Same lookup for Cn1ncc(-c2ccc3c(c2)CN(C2CCC(=O)NC2=O)C3=O)c1-c1ccc(C(=O)NC2CCCC2)cc1 (stereo not shown) , please.
≥ 25 nM

Try this compound next: Cn1cnc(-c2ccc3c(c2)CN(C2CCC(=O)NC2=O)C3=O)c1-c1ccc2[nH]ccc2c1 (stereo not shown)
≥ 25 nM

Can you check Cn1cnc(-c2ccc3c(c2)CN(C2CCC(=O)NC2=O)C3=O)c1-c1cc(F)cc(Cl)c1 (stereo not shown) next?
≥ 25 nM

Now the compound Cn1ncc(-c2ccc3c(c2)CN(C2CCC(=O)NC2=O)C3=O)c1-c1ccc(OCCCN2CCOCC2)cc1 (stereo not shown)
≥ 25 nM

What do you have for Cn1cnc(-c2ccc3c(c2)CN(C2CCC(=O)NC2=O)C3=O)c1-c1cc(Cl)ccc1C#N (stereo not shown) ?
< 25 nM

====

As shown below, each of these compounds has a reported DC50 value.
target: CK1α (Homo sapiens, UniProt P48729+Q96SW2); construct: CSNK1A1-HiBit KI HEK293(LgBit) Cells; host or cells: HEK293(LgBit) knock-in cells; experiment: HiBiT degradation assay, CK1α, Procedure A; format: cell-based; settings: six hours

Given the compound Cn1nc(-c2ccc3c(c2)CN(C2CCC(=O)NC2=O)C3=O)nc1[C@H]1CC[C@H](C)CC1 (stereo partly shown) [Example 616] , what is its reported DC50?
≥ 25 nM

Now consider CCc1cn(-c2ccccc2)c(-c2ccc3c(c2)CN(C2CCC(=O)NC2=O)C3=O)n1 (stereo not shown) [Example 730] .
< 25 nM

Can you handle Cn1cnc(-c2ccc3c(c2)CN(C2CCC(=O)NC2=O)C3=O)c1-c1cccc2cc[nH]c12 (stereo not shown) [Example 526] next?
< 25 nM

Similarly, Cn1cnc(-c2ccc3c(c2)CN(C2CCC(=O)NC2=O)C3=O)c1-c1cccc(C#N)n1 (stereo not shown) [Example 399] ?
< 25 nM

====

target: GSPT1 (Homo sapiens, UniProt P15170+Q96SW2); assay: HiBiT degradation assay, GSPT1, Procedure A; type: cell-based; set-up: HiBit-GSPT1 KI HEK293(LgBit) Cells; host or cells: HEK293(LgBit) knock-in cells; conditions: six hours incubation
TEST_READOUT: DC50

Here is how some molecules turned out for DC50.
// returns reported DC50 for input Cn1cnc(-c2ccc3c(c2)CN(C2CCC(=O)NC2=O)C3=O)c1-c1cccc(N2CCOCC2)c1 (centres unmarked)
≥ 0.025 µM

And the next one, Cn1cnc(-c2ccc3c(c2)CN(C2CCC(=O)NC2=O)C3=O)c1-c1ccc(F)c(Cl)c1 (centres unmarked) ?
≥ 0.025 µM

And what about the molecule Cn1cnc(-c2ccc3c(c2)CN(C2CCC(=O)NC2=O)C3=O)c1-c1ccnn1C (centres unmarked) ?
< 0.025 µM

And then Cn1ncc(-c2ccc3c(c2)CN(C2CCC(=O)NC2=O)C3=O)c1-c1cccc2c1OCC2 (centres unmarked) , what is it?
≥ 0.025 µM

Then this molecule: Cc1occc1-c1c(-c2ccc3c(c2)CN(C2CCC(=O)NC2=O)C3=O)cnn1C (centres unmarked)
≥ 0.025 µM

// below: DC50 requested for another molecule
Quick one: DC50 for Cn1cnc(-c2ccc3c(c2)CN(C2CCC(=O)NC2=O)C3=O)c1-c1cc(F)ccc1Cl (centres unmarked) ?
≥ 0.025 µM

====

molecular target: CK1α (Homo sapiens, UniProt P48729+Q96SW2); construct: CSNK1A1-HiBit KI HEK293(LgBit) Cells; host or cells: HEK293(LgBit) knock-in cells; assay: HiBiT degradation assay, CK1α, Procedure A; type: cell-based; settings: six hours
TEST_READOUT: CK1α Ymin

Find the recorded CK1α Ymin belonging to Cn1nc(-c2ccc3c(c2)CN(C2CCC(=O)NC2=O)C3=O)nc1-c1ccccc1 (centres unmarked) and report it.
C (C = 0-10% remaining)

Now try Cc1ccc(-c2nc(-c3ccc4c(c3)CN(C3CCC(=O)NC3=O)C4=O)cn2C)cc1C (centres unmarked) .
C (C = 0-10% remaining)

Data origin, for the record: patent US20240158370A1
